Target: T1, His-tagged cynomolgus monkey CD38 (ACRO Biosystems cat #CD8-05223) (cynomolgus monkey, UniProt Q5VAN0 43-301)
T1 construct: bought recombinant protein with His tag
Test: ELISA, coated His-CD38
METRIC NAME: ELISA 1 ug/ml
Answers are plain numbers.

Some entries whose results are on file:
>>> reported_result("40769p1.1.H1 (scFv, V domains shown, tested as scFv-Fc supernatant) VH: EVQLLESGGGLVQPGGSLRLSCAASGFTFSDYWMNWVRQAPGKGLEWVSTISSGGSMIYHADSVKGRFTISRDNSKNTLYLQMNSLRPEDTAVYYCAKDNWNDYYGMDVWGQGTTVTVSS VL: QSVLTQPPSASGTPGQRVNISCSGSSSNIRYNYVYWYQQVPGTAPKLLIYKDDQRPSGVPDRFSGSKSGTSASLAISELQSEDEADYYCATWDGSLNARVFGGGTKLTVL")
2.05
>>> reported_result("40769p1.1.G5 (scFv, V domains shown, tested as scFv-Fc supernatant) VH: EVQLLESGGGFVQPGGSLRLSCAASGFNFNNAWMNWVRQAPGKGLEWVGIINGDGTNTYYADSVKGRFTISRDNSKNTLYLQMSSLRAEDTAIYYCARDNKLNDYYYAMDVWGQGTTVTV VL: QSVLTQPSSASGTPGQRVTISCSGGSSNIHANYVYWYQQLPGTAPKLLIYRNSQRPSGVPDRFSGSKSGTSASLAISGLQSEDEADYYCGTWDNILNVWVFGGGTKLTVL")
2.01
>>> reported_result("40769p1.2.F9 (scFv, V domains shown, tested as scFv-Fc supernatant) VH: EVQLLESGGDLVQPGGSLRLSCGASGFTFSDHYMSWVRQAPGKGLEWVADISARGSNTWYADSVKGRFTISRDNSENTLYLQMNSLRAEDTAVYYCAKNWNYNYGMDVWGQGTTVTVSS VL: QSVLTQAPSASGTPGQRVTISCSGSSIQNNYVSWYQQLPGTAPKLLIYRNFERPSGVPDRFSASKSGTSASLAISGLQSGDEADYYCASWDDSLNWVFGGGTKLTVL")
1.56

Consider the record given below.
Item: 40566p1.G9 (scFv, V domains shown, tested as scFv-Fc supernatant) VH: DVQLVESGGGVVRPGESLRLSCAASGFTFDNYDMTWVRQAPGEGLEWVSFISSRGTFTYYADSVKGRFTISRDNSKNTLYLQMNSLRAEDTAIYYCAKDSGEYYFFDYWGLGTLVTVSS VL: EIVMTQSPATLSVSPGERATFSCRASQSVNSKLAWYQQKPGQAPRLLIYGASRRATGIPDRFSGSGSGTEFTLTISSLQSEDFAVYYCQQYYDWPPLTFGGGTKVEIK | ELISA 1 ug/ml: 1.86
